Exercise: state measured Binding O.D. 405 nm for each of the substances provided.
system: R4A anti-dsDNA monoclonal antibody; assay: ELISA binding of monoclonal antibody R4A to phage clones; set-up: species or system mouse; conditions: R4A selected phage, Table 2
Ends that are not written are not given here.
When you answer, write just the number.

[ask] I am curious: what Binding O.D. 405 nm value has been reported for S T E H S E A D L W (STEHSEADLW; displayed on phage; peptide (1)..(10) randomly-selected sequence obtained by biopanning a decapeptide library with R4A) [φ1-2] ?
[reply] 0.7

[ask] I am curious: what Binding O.D. 405 nm value has been reported for D W D Y G A L M W A (DWDYGALMWA; displayed on phage; peptide (1)..(10) randomly-selected sequence obtained by biopanning a decapeptide library with R4A) [φ7-3] ?
[reply] 1.1

[ask] I am curious: what Binding O.D. 405 nm value has been reported for Y S D W D Y S E G L (YSDWDYSEGL; displayed on phage; peptide (1)..(10) randomly-selected sequence obtained by biopanning a decapeptide library with R4A) [φ1-10] ?
[reply] 1.1

[ask] I am curious: what Binding O.D. 405 nm value has been reported for L Y F E D Y R C E L (LYFEDYRCEL; displayed on phage; peptide (1)..(10) randomly-selected sequence obtained by biopanning a decapeptide library with R4A) [φ7-6] ?
[reply] 1.2

[ask] I am curious: what Binding O.D. 405 nm value has been reported for V P V C D W E L N C (VPVCDWELNC; displayed on phage; peptide (1)..(10) randomly-selected sequence obtained by biopanning a decapeptide library with R4A) [φ7-26] ?
[reply] 0.4

[ask] I am curious: what Binding O.D. 405 nm value has been reported for W C E A D Y G R C P (WCEADYGRCP; displayed on phage; peptide (1)..(10) randomly-selected sequence obtained by biopanning a decapeptide library with R4A) [φ7-21] ?
[reply] 1.3

[ask] I am curious: what Binding O.D. 405 nm value has been reported for D W E Y S V W L S N (DWEYSVWLSN; not fully specified (N-terminus, C-terminus)) [φ1-3] ?
[reply] 1.3
